Cited source: ChEMBL document CHEMBL3433997

Each item that follows carries a reported inhibition.
Biological target: Glucose transporter (Leishmania mexicana) (UniProt O61059)
Experiment: ST_JUDE_LEISH: Cytotoxicity at 2uM final concentration against transgenic Leishmania Mexicana promastigotes LmGT2 that are glucose transport deficient and complemented with the L. Mexicana glucose transporter 2. Activity is measured by DNA content using SYBR green in vitro
Type: functional
Lab book: enter the figure in %, no units written.

Query block: Item: O=C(C=Cc1ccc(Cl)c(Cl)c1)NCCCCCN1CCCC(CCCNC(=O)C2CC2c2ccccc2)C1 (stereo not given) Test system: Glucose transporter (Leishmania mexicana) (UniProt O61059) Read-out: inhibition Value: ?
Result block: 1.66

Query block: Item: Clc1cccc(C=NN=c2cc[nH]c3ccccc23)c1 Test system: Glucose transporter (Leishmania mexicana) (UniProt O61059) Read-out: inhibition Value: ?
Result block: 2.9

Query block: Item: NC(=O)c1c(Cl)nc2ccccc2c1Cl Test system: Glucose transporter (Leishmania mexicana) (UniProt O61059) Read-out: inhibition Value: ?
Result block: 4.04

Query block: Item: Cc1ccc(NC(=O)Nc2ccc(Cl)cc2)cc1-c1ccc(C(=O)Nc2ccncc2)cc1 Test system: Glucose transporter (Leishmania mexicana) (UniProt O61059) Read-out: inhibition Value: ?
Result block: 0.65
